Recorded EC50 by entry
Tested on: Hepatovirus A
Experiment: Antiviral activity against hepatitis A virus KRM031 infected in human Huh-7.5.1 cells assessed as reduction in cytoplasmic viral RNA level at 5 to 20 uM incubated for 72 hrs dosed after infection for 6 hrs by RT-qPCR method
Type: functional, organism-based
Conditions: KRM031, Huh-7.5.1
Write it as a number; the unit µM goes unstated.

Compound: COc1cc(OCC(=O)N/N=C/c2ccc(Cl)cc2)cc2c1CCC(c1cc(OC)c(OC)c(OC)c1)O2 (centres undefined)
EC50 [µM]: 13.1

In the following, a different compound is considered.
Req: Given COc1cc(OCC(=O)N/N=C/c2ccc(Cl)s2)cc2c1CCC(c1cc(OC)c(OC)c(OC)c1)O2 (centres undefined) , respond with its EC50.
Resp: 8.5
